- Test System: Voltage-gated potassium channel subunit beta-2 (Rattus norvegicus)
- Test Summary: enhancers of rat Kvbeta2 NADPH turnover – biochemical, NADPH fluorescence, primary screen (AID 623);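 note: fluorescence intensity change per second fitted from 20 to 320 s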
- Stated Conditions: Recombinant KvBeta, NADPH fluorescence decrease slope, 10 min; at 10 µM; active compounds read low
Parameter Measured: NADPH fluorescence slope
Simply state the number, no unit and no words.

Summary: `COC(=O)c1ccc(C)c(NS(=O)(=O)c2ccc3c(c2)OCCO3)c1` , Voltage-gated potassium channel subunit beta-2 (Rattus norvegicus), NADPH fluorescence slope = -5.8e-05

Summary: `Cc1c(C(=O)N2CCN(c3ccccc3)CC2)sc2ncnc(N3CCN(c4ccccc4)CC3)c12` , Voltage-gated potassium channel subunit beta-2 (Rattus norvegicus), NADPH fluorescence slope = -1.1e-05

Summary: `Cc1cccnc1NC(=O)CCCN1C(=O)c2ccccc2C1=O` , Voltage-gated potassium channel subunit beta-2 (Rattus norvegicus), NADPH fluorescence slope = -6.3e-05

Summary: COCC(C)NC(=O)NC(=O)c1ccc(Cl)cc1 (configuration not stated) , Voltage-gated potassium channel subunit beta-2 (Rattus norvegicus), NADPH fluorescence slope = 2.1e-05

Summary: `O=C(Nc1ccccc1C(=O)N1CCN(c2ccccc2)CC1)c1ccco1` , Voltage-gated potassium channel subunit beta-2 (Rattus norvegicus), NADPH fluorescence slope = -2.1e-05

Summary: COc1ccc(S(=O)(=O)N2Cc3ccccc3CC2C(=O)Nc2ccc(O)cc2)cc1OC (configuration not stated) , Voltage-gated potassium channel subunit beta-2 (Rattus norvegicus), NADPH fluorescence slope = -6e-05

Summary: COc1cc(C(c2sc3nc(C)nn3c2O)N2CC(C)CC(C)C2)cc(OC)c1OC (configuration not stated) , Voltage-gated potassium channel subunit beta-2 (Rattus norvegicus), NADPH fluorescence slope = -0.00015

Summary: CC1CCC2C(C1)c1sc(=O)[nH]c1SC2(C)C (configuration not stated) , Voltage-gated potassium channel subunit beta-2 (Rattus norvegicus), NADPH fluorescence slope = 2e-05

Summary: `C#CCNc1c(C)c(C)nc2ncnn12` , Voltage-gated potassium channel subunit beta-2 (Rattus norvegicus), NADPH fluorescence slope = -3.6e-05

Summary: `CCOC(=O)c1sc2cccc(F)c2c1N` , Voltage-gated potassium channel subunit beta-2 (Rattus norvegicus), NADPH fluorescence slope = -7.4e-05

Summary: `CCOc1ccc(-c2nnc(N)s2)cc1` , Voltage-gated potassium channel subunit beta-2 (Rattus norvegicus), NADPH fluorescence slope = -0.000137

Summary: `CCOc1ccc(-c2nnn(CC(=O)N3CCN(c4ccc(F)cc4)CC3)n2)cc1OCC` , Voltage-gated potassium channel subunit beta-2 (Rattus norvegicus), NADPH fluorescence slope = -1.5e-05

Summary: `COc1ccc(N(C)C(=O)CCS(=O)(=O)c2cccc3nonc23)c(OC)c1` , Voltage-gated potassium channel subunit beta-2 (Rattus norvegicus), NADPH fluorescence slope = -0.000205

Summary: COC(=O)C(C)Sc1nc2c(c(=O)n1-c1ccccc1)SCC2 (configuration not stated) , Voltage-gated potassium channel subunit beta-2 (Rattus norvegicus), NADPH fluorescence slope = -7.6e-05

Summary: `Cc1cc(C)c2c(n1)nn1c(N3CCN(c4cccc(Cl)c4)CC3)cc(C)nc21` , Voltage-gated potassium channel subunit beta-2 (Rattus norvegicus), NADPH fluorescence slope = 1.1e-05

Summary: `Cc1ccc(Cn2nnc(C(=O)Nc3cccc(C)c3C)c2N)cc1` , Voltage-gated potassium channel subunit beta-2 (Rattus norvegicus), NADPH fluorescence slope = 2.2e-07

Summary: `CCOC(=O)Nc1ccc(NS(=O)(=O)c2ccc(C)cc2)cc1` , Voltage-gated potassium channel subunit beta-2 (Rattus norvegicus), NADPH fluorescence slope = 8.9e-06

Summary: `Cn1c2ccc(F)cc2c2ncn(CCN3CCOCC3)c(=O)c21` , Voltage-gated potassium channel subunit beta-2 (Rattus norvegicus), NADPH fluorescence slope = -1.5e-05

Summary: `Cc1nnc(NCCc2ccccc2)n(N)c1=O` , Voltage-gated potassium channel subunit beta-2 (Rattus norvegicus), NADPH fluorescence slope = 4.9e-06

Summary: `O=C(C1CCCCC1)N1CCC(c2nc3c(nnn3Cc3c(F)cccc3Cl)c(=O)[nH]2)CC1` , Voltage-gated potassium channel subunit beta-2 (Rattus norvegicus), NADPH fluorescence slope = -0.000123

Summary: `COc1ccc(C(=O)c2ccccc2)c(O)c1` , Voltage-gated potassium channel subunit beta-2 (Rattus norvegicus), NADPH fluorescence slope = 2.6e-05

Summary: Cc1ccc2nc(NC(=O)C3CCCN(S(=O)(=O)c4cccc5nonc45)C3)sc2c1 (configuration not stated) , Voltage-gated potassium channel subunit beta-2 (Rattus norvegicus), NADPH fluorescence slope = 2.8e-06

====

- Test System: Alpha-2C adrenergic receptor (Homo sapiens)
- Test Summary: compounds altering alpha2C-coupled GIRK flux – cell-based, HEK293 alpha2C/GIRK1/2, thallium flux, primary screen (AID 624);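 note: slope of fluorescence ratio to pre-addition baseline per second over 15 to 24 s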
- Stated Conditions: thallium flux BTC fluorescence, at 10 µM, actives lie on both sides
Calls of active or inactive are those of the source.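 How the source made its calls: active means fluorescence slope after compound addition differing from the mean of all screened samples at 99.7% confidence, in either direction; inactive means the rest.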
Exercise: state measured slope for each of the compounds provided.

For reference, reported slope for O=C(CSCc1cnn(-c2ccccc2)c1-n1cccc1)NCC1CCCO1 (configuration not stated) stands at 0.00606 (inactive)

For reference, reported slope for `CN(C)c1nc(SCCOC(=O)c2ccccc2)nc(N(C)C)n1` stands at 0.00433 (inactive)

For reference, reported slope for `CCn1c(C)nc2cc(C(=O)OCCC(F)(F)F)ccc21` stands at 0.00759 (inactive)

For reference, reported slope for `O=C(Cn1nc(-c2ccc3c(c2)OCCO3)ccc1=O)Nc1ccc(N2CCOCC2)cc1` stands at 0.00403 (inactive)

For reference, reported slope for O=C(NC1CCCC1)C(c1cccs1)N(C(=O)c1ccno1)c1ccccc1 (configuration not stated) stands at 0.00635 (inactive)

For reference, reported slope for `Cc1cccc(Cn2c(SCC(=O)Nc3ccccc3)nc3c2c(=O)[nH]c(=O)n3C)c1` stands at 0.0074 (inactive)

For reference, reported slope for `Cc1ccc(NC(=O)c2ccco2)cc1NC(=O)CSc1nnc(-c2cccs2)n1C` stands at 0.00449 (inactive)

For reference, reported slope for CC(C)=CCCC(C)N(C=O)C(C)CCC=C(C)C (configuration not stated) stands at 0.00568 (inactive)

For reference, reported slope for `c1ccc(OCc2nc(-c3ccccc3)no2)cc1` stands at 0.0046 (inactive)

For reference, reported slope for `COC(=O)c1cnc2c(C(F)(F)F)cccc2c1OC` stands at 0.0043 (inactive)

For reference, reported slope for C=CCN1C(=O)C2(C(C#N)=C(N)Oc3n[nH]c(CCC)c32)c2ccccc21 (configuration not stated) stands at 0.00735 (inactive)

For reference, reported slope for `CCOc1cccc(-n2nnnc2-c2ccc(OC)cc2)c1` stands at 0.00569 (inactive)

For reference, reported slope for `COc1ccc(-c2noc(CCN3C(=O)c4ccccc4C3=O)n2)cc1OC` stands at 0.00665 (inactive)

For reference, reported slope for COc1ccc(OC)c(S(=O)(=O)N2c3ccccc3CC2C)c1 (configuration not stated) stands at 0.00606 (inactive)

For reference, reported slope for `COc1ccccc1NC(=O)c1ccc(COc2ccccc2OC)o1` stands at 0.00349 (inactive)

For reference, reported slope for `Cc1c(Cl)cccc1N1C(=O)c2ccccc2C1=O` stands at 0.00611 (inactive)

For reference, reported slope for CCC(C)(C)n1nnnc1C(c1ccc(OC)c(OC)c1)N1CCN(c2ccc(F)cc2)CC1 (configuration not stated) stands at 0.00413 (inactive)

For reference, reported slope for CC(=O)Nc1ccc(S(=O)(=O)NCC(C)NS(=O)(=O)c2ccc(NC(C)=O)cc2)cc1 (configuration not stated) stands at 0.0079 (inactive)

For reference, reported slope for `COc1cc2nc(SCC(=O)NC3CC3)n(CCC3=CCCCC3)c(=O)c2cc1OC` stands at 0.00342 (inactive)

For reference, reported slope for `CC(C)CNS(=O)(=O)c1ccc(CCC(=O)N2CCOCC2)cc1` stands at 0.00694 (inactive)

For reference, reported slope for `CCc1c(C)n([O-])c2c([n+]1=O)CCC2` stands at 0.00618 (inactive)

For reference, reported slope for `CCOc1ccc(S(=O)(=O)N2CCN(c3ccc(C)cc3C)CC2)cc1` stands at 0.00897 (inactive)

====

- Test System: Voltage-gated potassium channel subunit beta-2 (Rattus norvegicus) (UniProt P62483)
- Sequence (P62483 whole entry, looked up): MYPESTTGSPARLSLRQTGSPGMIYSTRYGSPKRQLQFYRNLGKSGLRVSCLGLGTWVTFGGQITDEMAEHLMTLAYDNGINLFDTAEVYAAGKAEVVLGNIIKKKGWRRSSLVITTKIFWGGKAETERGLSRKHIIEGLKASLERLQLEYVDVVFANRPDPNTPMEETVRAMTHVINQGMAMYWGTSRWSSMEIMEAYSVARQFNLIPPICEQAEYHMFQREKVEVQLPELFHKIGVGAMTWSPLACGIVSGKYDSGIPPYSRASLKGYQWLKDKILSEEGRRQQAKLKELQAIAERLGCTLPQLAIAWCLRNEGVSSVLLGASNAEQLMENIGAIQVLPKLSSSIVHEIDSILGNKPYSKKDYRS
- Test Summary: inhibitors of rat Kvbeta2 reductase activity – biochemical, NADPH fluorescence, primary screen (AID 622);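 note: slope of raw intensity against log time taken from 70 to 1610 s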
- Stated Conditions: recombinant KvBeta, 4-cyanobenzaldehyde reduction, at 10 µM, active compounds read high
Each record's fluorescence slope is compared with low value (below -0.6), medium value (-0.6 to below -0.4), high value (-0.4 or more) to give its class.

// return the class label for CCOC(=O)C(C(=O)OCC)C(C)C#CCN1CCCCC1 (stereo not given)
high value

// return the class label for `Cc1c(N(C)C)nc2ccccc2c1N`
high value

// return the class label for `COc1ccccc1Nc1nc2ccccc2[nH]1`
medium value

// return the class label for `COc1ccc(-c2nnc(-c3cccs3)o2)cc1OC`
high value

// return the class label for `COc1ccc(NC(=O)CN(c2cc(C)cc(C)c2)S(=O)(=O)c2c(C)noc2C)cc1OC`
medium value

// return the class label for `CCCS(=O)(=O)N1CCN(Cc2ccc(OCc3ccccc3)c(OC)c2)CC1`
medium value

// return the class label for `Cc1ccc(-n2ncc3c(=O)n(CC(=O)N4CCCc5ccccc54)cnc32)cc1C`
high value

// return the class label for `CC(=O)Nc1c2c(nn1-c1ccc(C)cc1C)CSC2`
medium value

// return the class label for CCN1CCN(C(=O)C2CC(c3ccc(F)cc3)=NO2)CC1 (stereo not given)
low value

// return the class label for `COc1ccc(S(=O)(=O)N2CCOCC2)cc1C(=O)Nc1cc(C)on1`
medium value

// return the class label for `CCCSc1nc(N)c(C#N)c(-c2ccc(C)cc2)c1C#N`
high value

// return the class label for O=C(O)C1CCCN1S(=O)(=O)c1ccc2ccccc2c1 (stereo not given)
low value

// return the class label for CCN(CC)C1CCCCC1NS(=O)(=O)c1ccc(Cl)cc1 (stereo not given)
medium value

Reference source: PubChem BioAssay
